// provenance: patent US12486214B2

# experimental protocol: Solubility in distilled water or DMSO
# Type: physicochemical
# experimental parameters: distilled water, water; read-out: solubility in distilled water
metric: solubility

Entry O=C(/C=C/c1ccc(O)c(O)c1)O[C@H](Cc1ccc(O)c(O)c1)C(=O)O [Rosmarinic acid (RA), rosmarinic acid] , solubility reported as ≤ 41 µg/mL
